Target: UCHL1 (Homo sapiens)
Sequence (P09936 1-223): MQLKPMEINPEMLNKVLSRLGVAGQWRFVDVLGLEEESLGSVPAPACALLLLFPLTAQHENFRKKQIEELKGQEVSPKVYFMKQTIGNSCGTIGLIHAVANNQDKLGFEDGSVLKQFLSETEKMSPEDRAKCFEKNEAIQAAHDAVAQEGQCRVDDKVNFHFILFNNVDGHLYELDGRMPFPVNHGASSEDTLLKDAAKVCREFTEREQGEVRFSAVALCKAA
pIC50: −log10 of the molar value.
readout: pIC50

// solved cases for pIC50 follow
{"molecule": "N#CN1CC[C@H](C(=O)Nc2cn3cc(C(F)(F)F)ccc3n2)C1", "result": "> 6.00"}
{"molecule": "N#Cc1ccc(-n2cnc(NC(=O)[C@H]3CCN(C#N)C3)c2)cc1OC1COC1", "result": "> 6.00"}
{"molecule": "COc1ccc(NC(=O)C2CCN(C#N)C2)nc1 (stereo not shown)", "result": "4.52 to 5.00"}
{"molecule": "Cc1noc(C)c1-c1ccc2sc(NC(=O)C3CCN(C#N)C3)nc2c1 (stereo not shown)", "result": "5.00 to 6.00"}
{"molecule": "C[C@H]1[C@@H](C(=O)Nc2cn(Cc3ccccc3)cn2)CCN1C#N", "result": "> 6.00"}

Reported pIC50 for `N#CN1CC[C@H](C(=O)Nc2ncc(-c3ccnnc3)s2)C1` was > 6.00

Reported pIC50 for `Cc1oncc1-c1cc(-c2ccnc(NC(=O)[C@H]3CCN(C#N)C3)c2)ccn1` was > 6.00

---

Target protein (sequence): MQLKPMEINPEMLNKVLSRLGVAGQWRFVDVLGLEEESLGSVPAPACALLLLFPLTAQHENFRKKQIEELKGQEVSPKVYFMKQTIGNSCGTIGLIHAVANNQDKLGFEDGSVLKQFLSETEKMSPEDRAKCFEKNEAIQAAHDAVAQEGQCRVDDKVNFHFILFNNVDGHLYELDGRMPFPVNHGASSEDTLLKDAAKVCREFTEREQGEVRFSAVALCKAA
pIC50: −log10 of the molar value.
pIC50 values for the molecules below.

// solved cases for pIC50 follow
{"molecule": "N#CN1CC[C@H](C(=O)Nc2ncc(-c3ccccc3)s2)C1", "pIC50": "> 6.00"}
{"molecule": "N#CN1CCC(C(=O)Nc2ccc(-c3ccccc3)nn2)C1 (stereo not drawn)", "pIC50": "4.52 to 5.00"}
{"molecule": "CC(=O)Nc1ccccc1-c1cnc(NC(=O)C2CCN(C#N)C2)s1 (stereo not drawn)", "pIC50": "5.00 to 6.00"}

Attention now turns to another entry.
Reported pIC50 for `N#CN1CC[C@H](C(=O)Nc2nc3c(s2)CN(C(=O)c2cccnc2)CC3)C1` was > 6.00

---

A set of compounds tested on UCHL1 (Homo sapiens), with measured IC50:

{"compound": "N#CN1CC[C@H](C(=O)Nc2cccc(N3CCCC3)n2)C1 [Example 106]", "IC50": "10000 to 30000 nM"}
{"compound": "N#Cc1cccc(-n2cnc(NC(=O)[C@H]3CCN(C#N)C3)c2)c1 [Example 180]", "IC50": "< 1000 nM"}
{"compound": "N#Cc1ccc(-c2cnc(NC(=O)[C@H]3CCN(C#N)C3)s2)cc1F [Example 214]", "IC50": "< 1000 nM"}
{"compound": "N#CN1CCC(C(=O)Nc2ccc(-c3cccnc3)cn2)C1 (centres unmarked) [Example 33]", "IC50": "1000 to 10000 nM"}

Reported IC50 for N#CN1CCC(C(=O)Nc2nc3ccc(C4CC4)cc3s2)C1 (centres unmarked) [Example 130] was < 1000 nM
